System: SN12C renal
protocol.details: NCI-60 one-dose screen, 48 h
experimental.parameters: 10 µM unless noted
This is part of a sample that, as a whole, favours compounds with a hit. Of some 83,000 tested, about 20% had one in any assay. Activity calls are given as the source filed them. The calls were made as follows: active = growth percent below 10; inactive = the rest.
Bench note: report the call from active, inactive

stdin: Hi team, can someone confirm the assay call for "CC(=O)c1ccc(NS(=O)(=O)c2cccc(C(=O)Nc3ccc(Br)cc3)c2)cc1" ?
stdout: inactive

stdin: # fetch the recorded call for "Cc1nc(N)nc(N[C@@H](C)c2nc3cccc(NCc4ccc(C(=O)NO)cc4)c3c(=O)n2-c2ccccc2)n1" here
stdout: inactive

stdin: What outcome does the record of this test show for "O=C(CCN1CCCC1)c1ccc([N+](=O)[O-])cc1" ?
stdout: inactive

stdin: Field: outcome | Entry: "COc1cc(C(=O)Nc2cc3c(cc2Oc2cc(C)cc(C)c2)C(=O)N(C)[C@@H](CC(=O)N(C)O)C(=O)N3)c(Br)c(OC)c1OC"
stdout: active

stdin: How was "CCN(CC)c1ccc(/C=N/NC(=O)CSc2nc3ccccc3c(=O)n2CCc2ccc(S(N)(=O)=O)cc2)c(O)c1" classified in this test?
stdout: inactive

stdin: Check the results log: what was the call for "O=C(/C=C(O)/C=C/c1ccc(SC(F)(F)F)cc1)/C=C/c1ccc(SC(F)(F)F)cc1" ?
stdout: inactive

stdin: Any idea what this test logged for "CCOC(=O)c1cc(C(=O)c2ccc(OC)c(OC)c2)n2c1ccc1ccccc12" ?
stdout: inactive

stdin: Outcome logged for "CCOC(=O)/C(C#N)=C1/NNC(=Nc2cccnc2)S1" in this assay:
stdout: inactive

stdin: Give the logged outcome of this assay for the following compound: "CCCCCCNC(=O)Oc1ccc(/C(=C(\C)c2ccccc2)c2ccc(OCCCN(C)C)cc2)cc1"
stdout: inactive
